Test system: M. morganii GC 4531
assayComment: Broth dilution MIC
Format: cell-based
conditionParameters: Morganella morganii, GC4531; M. morganii GC 4531; Mueller-Hinton broth, 18 hours at 35° C.; read-out: Antimicrobial Activity (MIC)
propertyMeasured: MIC

Known results for molecules:
molecule	propertyMeasured	observedMeasurement
COc1ccc(N2C(=O)C([C@@H](OC3O[C@H](CN)[C@H](O)[C@H]3OC)[C@H]3O[C@@H](n4ccc(=O)[nH]c4=O)[C@H](O)[C@@H]3O)N(CCCNC(=O)C(NC(=O)C(NC(=O)NC(C(=O)O)C(C)C)C3CCNC(=N)N3)C(O)C(C)C)C2=O)cc1 (some centres unmarked) [Example 4]	MIC	> 32 µg/mL
CO[C@H]1C(O[C@H](C(C(=O)O)N(CCCNC(=O)C(NC(=O)C(NC(=O)NC(C(=O)O)C(C)C)C2CCNC(=N)N2)C(O)C(C)C)Cc2ccc(-c3ccccc3)cc2)[C@H]2O[C@@H](n3ccc(=O)[nH]c3=O)[C@H](O)[C@@H]2O)O[C@H](CNCc2ccc(-c3ccccc3)cc2)[C@@H]1O (some centres unmarked) [Example 19B]	MIC	> 32 µg/mL
CCCCCNC[C@H]1OC(O[C@H](C(NCCCNC(=O)C(NC(=O)C(NC(=O)NC(C(=O)O)C(C)C)C2CCNC(=N)N2)C(O)C(C)C)C(=O)O)[C@H]2O[C@@H](n3ccc(=O)[nH]c3=O)[C@H](O)[C@@H]2O)[C@H](OC)[C@H]1O (some centres unmarked) [Example 18]	MIC	> 32 µg/mL

Item under review: CO[C@H]1C(O[C@H](C(C(=O)O)N(CCCNC(=O)C(NC(=O)C(NC(=O)NC(C(=O)O)C(C)C)C2CCNC(=N)N2)C(O)C(C)C)Cc2ccccc2)[C@H]2O[C@@H](n3ccc(=O)[nH]c3=O)[C@H](O)[C@@H]2O)O[C@H](CN)[C@@H]1O (some centres unmarked) [Example 6] . Reported MIC?
> 32 µg/mL

// query MIC value for entry CO[C@H]1C(O[C@H](C(C(=O)O)N(CCCNC(=O)C(NC(=O)C(NC(=O)NC(C(=O)O)C(C)C)C2CCNC(=N)N2)C(O)C(C)C)Cc2ccccc2)[C@H]2O[C@@H](n3ccc(=O)[nH]c3=O)[C@H](O)[C@@H]2O)O[C@H](CNCc2ccccc2)[C@@H]1O (some centres unmarked) [Example 20B]
> 32 µg/mL

Look up MIC for this molecule: CCCCCNC[C@H]1OC(O[C@H](C(C(=O)O)N(CCCCC)CCCNC(=O)C(NC(=O)C(NC(=O)NC(C(=O)O)C(C)C)C2CCNC(=N)N2)C(O)C(C)C)[C@H]2O[C@@H](n3ccc(=O)[nH]c3=O)[C@H](O)[C@@H]2O)[C@H](OC)[C@H]1O (some centres unmarked) [Example 17]
> 32 µg/mL

Looking for the measured MIC of CCCCCN1C(=O)C([C@@H](OC2O[C@H](CN)[C@H](O)[C@H]2OC)[C@H]2O[C@@H](n3ccc(=O)[nH]c3=O)[C@H](O)[C@@H]2O)N(CCCNC(=O)C(NC(=O)C(NC(=O)NC(C(=O)O)C(C)C)C2CCNC(=N)N2)C(O)C(C)C)C1=O (some centres unmarked) [Example 2] , can you help?
> 32 µg/mL

Give its MIC value. Item: CCCCCCN1C(=O)C([C@@H](OC2O[C@H](CN)[C@H](O)[C@H]2OC)[C@H]2O[C@@H](n3ccc(=O)[nH]c3=O)[C@H](O)[C@@H]2O)N(CCCNC(=O)C(NC(=O)C(NC(=O)NC(C(=O)O)C(C)C)C2CCNC(=N)N2)C(O)C(C)C)C1=O (some centres unmarked) [Example 3]
> 32 µg/mL

Reference for the values: patent US6727232B2
